Origin of measurements: ChEMBL document CHEMBL3991601

measured on: Rho-associated protein kinase 2 (Homo sapiens)
Sequence (O75116 whole entry): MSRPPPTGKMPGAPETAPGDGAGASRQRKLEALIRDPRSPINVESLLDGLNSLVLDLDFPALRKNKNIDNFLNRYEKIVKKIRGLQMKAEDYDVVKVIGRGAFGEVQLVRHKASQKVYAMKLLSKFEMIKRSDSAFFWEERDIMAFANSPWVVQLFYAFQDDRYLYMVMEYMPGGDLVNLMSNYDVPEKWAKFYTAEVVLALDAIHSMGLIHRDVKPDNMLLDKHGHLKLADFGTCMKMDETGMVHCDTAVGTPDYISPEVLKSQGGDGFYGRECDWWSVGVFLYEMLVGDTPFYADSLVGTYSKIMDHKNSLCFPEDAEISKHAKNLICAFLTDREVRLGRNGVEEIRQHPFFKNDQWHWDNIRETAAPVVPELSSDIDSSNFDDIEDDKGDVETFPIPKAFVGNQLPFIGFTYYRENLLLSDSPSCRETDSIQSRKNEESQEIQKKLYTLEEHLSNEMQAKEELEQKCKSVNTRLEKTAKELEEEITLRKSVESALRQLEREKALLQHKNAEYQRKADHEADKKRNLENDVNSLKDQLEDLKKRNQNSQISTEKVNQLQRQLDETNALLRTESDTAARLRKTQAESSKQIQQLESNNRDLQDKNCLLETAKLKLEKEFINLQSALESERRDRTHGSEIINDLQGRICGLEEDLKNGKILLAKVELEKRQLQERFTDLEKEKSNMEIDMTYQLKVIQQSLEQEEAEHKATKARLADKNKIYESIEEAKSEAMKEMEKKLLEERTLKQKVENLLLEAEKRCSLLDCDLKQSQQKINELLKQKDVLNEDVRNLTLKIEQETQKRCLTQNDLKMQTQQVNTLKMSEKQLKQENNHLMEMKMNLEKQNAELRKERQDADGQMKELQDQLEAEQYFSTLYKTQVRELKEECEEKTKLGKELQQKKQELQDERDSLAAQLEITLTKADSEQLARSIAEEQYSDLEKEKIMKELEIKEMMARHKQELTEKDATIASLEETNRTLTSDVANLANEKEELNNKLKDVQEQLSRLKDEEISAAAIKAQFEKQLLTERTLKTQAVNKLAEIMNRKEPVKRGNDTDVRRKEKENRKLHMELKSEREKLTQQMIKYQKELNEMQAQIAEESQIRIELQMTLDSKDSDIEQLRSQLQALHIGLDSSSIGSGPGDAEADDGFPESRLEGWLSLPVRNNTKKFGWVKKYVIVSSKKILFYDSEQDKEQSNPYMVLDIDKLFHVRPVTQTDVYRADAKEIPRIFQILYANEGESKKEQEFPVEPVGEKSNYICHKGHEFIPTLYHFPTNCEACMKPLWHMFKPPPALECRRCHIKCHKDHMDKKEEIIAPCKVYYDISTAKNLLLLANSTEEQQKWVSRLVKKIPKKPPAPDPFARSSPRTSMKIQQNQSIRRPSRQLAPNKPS
Active and inactive are the calls of the source.
Classes used: class 1 = active, class 0 = inactive

{"substance smiles": "COc1ccc2c(OCc3nnc4ccc(-c5ccccc5)nn34)ccnc2c1", "qualitative label": "class 0"}
{"substance smiles": "CC(C)CC(=O)Nc1[nH]nc2c1CN(C(=O)C1CCN(C)CC1)C2(C)C", "qualitative label": "class 0"}
{"substance smiles": "CC[C@@](C)(Nc1ccnc(-c2c[nH]c3ncccc23)n1)C(=O)NCC(F)(F)F", "qualitative label": "class 1"}
{"substance smiles": "COc1cccc2cc(-c3nc([C@H]4CC[C@H](C(=O)O)CC4)n4ncnc(N)c34)[nH]c12", "qualitative label": "class 0"}
{"substance smiles": "CCc1cc2c(cc1N1CCC(N3CCOCC3)CC1)C(C)(C)c1[nH]c3cc(C#N)ccc3c1C2=O", "qualitative label": "class 0"}
{"substance smiles": "C=CC(=O)Nc1cccc(Nc2nc(Nc3ccc(N4CCN(C(C)=O)CC4)cc3OC)ncc2C(F)(F)F)c1", "qualitative label": "class 0"}
{"substance smiles": "Cc1cc(Nc2nc(N[C@@H](C)c3ncc(F)cn3)ncc2Cl)n[nH]1", "qualitative label": "class 0"}
{"substance smiles": "CC(C)(O)CC(=O)NCCn1ccc2ncnc(Nc3ccc(Oc4cccc(C(F)(F)F)c4)c(Cl)c3)c21", "qualitative label": "class 0"}

---

measured on: Mitogen-activated protein kinase kinase kinase kinase 3 (Homo sapiens)
Sequence (Q8IVH8 whole entry): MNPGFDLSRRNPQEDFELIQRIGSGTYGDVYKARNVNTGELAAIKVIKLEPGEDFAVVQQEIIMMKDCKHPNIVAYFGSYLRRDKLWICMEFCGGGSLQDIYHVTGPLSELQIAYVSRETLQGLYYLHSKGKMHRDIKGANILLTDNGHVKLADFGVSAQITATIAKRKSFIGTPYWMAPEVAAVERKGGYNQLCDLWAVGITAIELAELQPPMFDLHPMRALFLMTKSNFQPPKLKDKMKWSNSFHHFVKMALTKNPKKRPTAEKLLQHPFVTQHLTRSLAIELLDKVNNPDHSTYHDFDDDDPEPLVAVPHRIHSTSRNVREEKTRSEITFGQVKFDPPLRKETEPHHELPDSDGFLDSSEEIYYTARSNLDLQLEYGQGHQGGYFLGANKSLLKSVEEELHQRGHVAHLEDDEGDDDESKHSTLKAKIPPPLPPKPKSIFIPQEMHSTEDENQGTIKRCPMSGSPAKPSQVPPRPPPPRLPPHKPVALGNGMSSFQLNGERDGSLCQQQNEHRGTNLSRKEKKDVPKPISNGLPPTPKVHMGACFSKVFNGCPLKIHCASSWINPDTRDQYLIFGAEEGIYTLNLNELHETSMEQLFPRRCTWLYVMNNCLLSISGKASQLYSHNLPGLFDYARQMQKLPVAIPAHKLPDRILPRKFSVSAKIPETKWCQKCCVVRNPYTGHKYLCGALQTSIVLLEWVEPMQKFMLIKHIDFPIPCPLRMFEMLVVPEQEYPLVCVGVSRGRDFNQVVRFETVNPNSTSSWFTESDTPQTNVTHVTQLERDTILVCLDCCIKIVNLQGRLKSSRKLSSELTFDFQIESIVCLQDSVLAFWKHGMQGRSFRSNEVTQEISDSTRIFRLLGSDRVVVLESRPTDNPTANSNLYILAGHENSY
Active and inactive are the calls of the source.
Classes used: 1 (yes) (active), 0 (no) (inactive)

{"substance smiles": "COc1cccc(Nc2ncnn3ccc(CN4CC[C@@H](N)[C@H](O)C4)c23)c1", "qualitative label": "0 (no)"}
{"substance smiles": "CC1(COc2ccc3c(c2)ncn3-c2ccc3cccc(N4CCC(N)CC4)c3n2)COC1", "qualitative label": "1 (yes)"}
{"substance smiles": "Cc1c(NC(=O)OC[C@@H]2COCCN2)cn2ncnc(Nc3ccc4c(cnn4Cc4cccc(F)c4)c3)c12", "qualitative label": "0 (no)"}
{"substance smiles": "CCN1CCN(Cc2ccc(Nc3ncc(F)c(-c4cc(F)c5nc(C)n(C(C)C)c5c4)n3)nc2)CC1", "qualitative label": "0 (no)"}
{"substance smiles": "O=c1[nH]c([C@@H]2CCCN2)nc2c1oc1ccc(Cl)cc12", "qualitative label": "0 (no)"}
{"substance smiles": "O=C(NC[C@H](O)CO)c1ccncc1Nc1ccc(I)cc1F", "qualitative label": "0 (no)"}
{"substance smiles": "CNC(=O)c1ccc(Nc2ncc(C(F)(F)F)c(NCc3nccnc3N(C)S(C)(=O)=O)n2)cc1", "qualitative label": "0 (no)"}
{"substance smiles": "COc1cc2ncnc3c2cc1OCCCCCN(C)Cc1ccc(Br)cc1N3", "qualitative label": "0 (no)"}

---

The compounds below have reported Kd for Activin receptor type-1 (Homo sapiens).
Calls of active or inactive are those of the source.
experimental readout: Kd

{"compound": "O=C(NC[C@H](O)CO)c1ccncc1Nc1ccc(I)cc1F [PIMASERTIB]", "measured on": "Activin receptor type-1 (Homo sapiens)", "experimental readout": "Kd", "obs value": "> 30 µM (inactive)"}
{"compound": "CNC(=O)c1cccc(-c2ccc3c(N4CCOC[C@@H]4C)nc(N4CCOC[C@@H]4C)nc3n2)c1 [VISTUSERTIB]", "measured on": "Activin receptor type-1 (Homo sapiens)", "experimental readout": "Kd", "obs value": "> 30 µM (inactive)"}
{"compound": "COc1ccc2c(OCc3nnc4ccc(-c5ccccc5)nn34)ccnc2c1 [AMG-208]", "measured on": "Activin receptor type-1 (Homo sapiens)", "experimental readout": "Kd", "obs value": "> 30 µM (inactive)"}
{"compound": "Cc1cc(-c2cc(OC(=O)c3ccccc3)ccc2Cl)cc2nnc(Nc3ccc(OCCN4CCCC4)cc3)nc12 [TG100-801]", "measured on": "Activin receptor type-1 (Homo sapiens)", "experimental readout": "Kd", "obs value": "> 30 µM (inactive)"}
{"compound": "Cc1c(NC(=O)OC[C@@H]2COCCN2)cn2ncnc(Nc3ccc4c(cnn4Cc4cccc(F)c4)c3)c12 [AC-480]", "measured on": "Activin receptor type-1 (Homo sapiens)", "experimental readout": "Kd", "obs value": "> 30 µM (inactive)"}
{"compound": "COc1cc2ncnc(Nc3ccc(O)cc3)c2cc1OC [WHI-P131]", "measured on": "Activin receptor type-1 (Homo sapiens)", "experimental readout": "Kd", "obs value": "> 30 µM (inactive)"}
{"compound": "N#CCNC(=O)c1ccc(-c2ccnc(Nc3ccc(N4CCOCC4)cc3)n2)cc1 [MOMELOTINIB]", "measured on": "Activin receptor type-1 (Homo sapiens)", "experimental readout": "Kd", "obs value": "> 30 µM (inactive)"}
{"compound": "Cc1c(Cn2c(C)nc3c(C(=O)O)cc(N4CCOCC4)cc32)cccc1C(F)(F)F [GSK-2636771]", "measured on": "Activin receptor type-1 (Homo sapiens)", "experimental readout": "Kd", "obs value": "> 30 µM (inactive)"}
{"compound": "C[C@]1(O)C[C@@H](c2nc(-c3ccc4ccc(-c5ccccc5)nc4c3)c3c(N)nccn32)C1 [LINSITINIB]", "measured on": "Activin receptor type-1 (Homo sapiens)", "experimental readout": "Kd", "obs value": "> 30 µM (inactive)"}
{"compound": "CNC(=O)c1ccc(Nc2ncc(C(F)(F)F)c(NCc3nccnc3N(C)S(C)(=O)=O)n2)cc1 [DEFACTINIB]", "measured on": "Activin receptor type-1 (Homo sapiens)", "experimental readout": "Kd", "obs value": "> 30 µM (inactive)"}
{"compound": "O=c1[nH]c([C@@H]2CCCN2)nc2c1oc1ccc(Cl)cc12", "measured on": "Activin receptor type-1 (Homo sapiens)", "experimental readout": "Kd", "obs value": "> 30 µM (inactive)"}
{"compound": "CC(C)CC(=O)Nc1[nH]nc2c1CN(C(=O)C1CCN(C)CC1)C2(C)C [PHA-793887]", "measured on": "Activin receptor type-1 (Homo sapiens)", "experimental readout": "Kd", "obs value": "> 30 µM (inactive)"}
{"compound": "C[C@@H]1COC(Nc2ccc3ncnc(Nc4ccc(OCc5nccs5)c(Cl)c4)c3c2)=N1 [VARLITINIB]", "measured on": "Activin receptor type-1 (Homo sapiens)", "experimental readout": "Kd", "obs value": "> 30 µM (inactive)"}
{"compound": "CN1CCN(c2nc(C3=C(c4c[nH]c5ccccc45)C(=O)NC3=O)c3ccccc3n2)CC1 [SOTRASTAURIN]", "measured on": "Activin receptor type-1 (Homo sapiens)", "experimental readout": "Kd", "obs value": "> 30 µM (inactive)"}
{"compound": "COc1cc(Nc2ncc(F)c(Nc3ccc4c(n3)N(COP(=O)(O)O)C(=O)C(C)(C)O4)n2)cc(OC)c1OC [FOSTAMATINIB]", "measured on": "Activin receptor type-1 (Homo sapiens)", "experimental readout": "Kd", "obs value": "> 30 µM (inactive)"}
{"compound": "COc1cc2ncnc3c2cc1OCCCCCN(C)Cc1ccc(Br)cc1N3 [JNJ-26483327]", "measured on": "Activin receptor type-1 (Homo sapiens)", "experimental readout": "Kd", "obs value": "> 30 µM (inactive)"}
{"compound": "COc1cccc(Nc2ncnn3ccc(CN4CC[C@@H](N)[C@H](O)C4)c23)c1 [BMS-690514]", "measured on": "Activin receptor type-1 (Homo sapiens)", "experimental readout": "Kd", "obs value": "> 30 µM (inactive)"}
